Assay: Cell viability assay (MTT), cytotoxic activity
Format: cell-based, human
Details: human; 100 µM, 24 h, MTT, percent of control; read-out: HepG2 Cell Viability
Experimental: The HepG2 and H9c2 cells were cultured in DMEM medium (Biolot, St. Petersburg, Russia) containing 10% fetal bovine serum (Biolot, St. Petersburg, Russia) and 1% penicillin/streptomycin (Biolot, St. Petersburg, Russia) at 37 °C in a humidified atmosphere with 5% (v/v) CO2. The HepG2 and H9c2 cells were seeded at concentrations of 5× 10^3 and 3×10^3 cell/well, respectively, and the experiments were started after 24 h. […] The results are presented as a percent of the control data and calculated IC50.
Would you mind telling me the reported viability at 24 h, 100 µM of each entry?
One number for each entry, in %.

For every listed record, write down its viability at 24 h, 100 µM.
1. CC1=CC(=O)OCC1 [Compound 11, 5,6-dihydro-4-methyl-2H-pyran-2-one]
2. COc1cc(O)c2c(=O)c3c(C)cc(O)cc3oc2c1 [Compound 6, griseoxanthone C]

## Result
76.6
27.1

---

assay: Cell viability assay (MTT), cytotoxic activity; assay type: cell-based, rat; conditions: rat, H9c2 cardiomyocyte cells; 100 µM, 24 h, MTT, percent of control
Kindly supply the reported viability at 24 h, 100 µM values for the records listed here.
One number for each entry, in %.

{"columns": ["molecule", "reading"],
 "data": [
  ["COC1=CC(=O)C[C@@H](C)[C@]12Oc1c(Cl)c(O)cc(OC)c1C2=O", 92.9],
  ["Cc1cc(=O)c2c(C)cc(O)cc2o1", 96.5],
  ["Cc1cc(O)c(O)c2oc3cc(O)cc(O)c3c(=O)c12 [Compound 7, 1,3,5,6-tetrahydroxy-8-methylxanthone]", 52.9]
]}

We now examine a further molecule.
Reported viability at 24 h, 100 µM for COC1=CC(=O)c2c(O)cc(OC)cc2[C@@]1(C)O [Compound 2, sajaroketide B] was 79

---

Target: urease from Canavalia ensiformis (Canavalia ensiformis)
Construct: purchased Sigma
Sequence (P07374 whole entry, looked up): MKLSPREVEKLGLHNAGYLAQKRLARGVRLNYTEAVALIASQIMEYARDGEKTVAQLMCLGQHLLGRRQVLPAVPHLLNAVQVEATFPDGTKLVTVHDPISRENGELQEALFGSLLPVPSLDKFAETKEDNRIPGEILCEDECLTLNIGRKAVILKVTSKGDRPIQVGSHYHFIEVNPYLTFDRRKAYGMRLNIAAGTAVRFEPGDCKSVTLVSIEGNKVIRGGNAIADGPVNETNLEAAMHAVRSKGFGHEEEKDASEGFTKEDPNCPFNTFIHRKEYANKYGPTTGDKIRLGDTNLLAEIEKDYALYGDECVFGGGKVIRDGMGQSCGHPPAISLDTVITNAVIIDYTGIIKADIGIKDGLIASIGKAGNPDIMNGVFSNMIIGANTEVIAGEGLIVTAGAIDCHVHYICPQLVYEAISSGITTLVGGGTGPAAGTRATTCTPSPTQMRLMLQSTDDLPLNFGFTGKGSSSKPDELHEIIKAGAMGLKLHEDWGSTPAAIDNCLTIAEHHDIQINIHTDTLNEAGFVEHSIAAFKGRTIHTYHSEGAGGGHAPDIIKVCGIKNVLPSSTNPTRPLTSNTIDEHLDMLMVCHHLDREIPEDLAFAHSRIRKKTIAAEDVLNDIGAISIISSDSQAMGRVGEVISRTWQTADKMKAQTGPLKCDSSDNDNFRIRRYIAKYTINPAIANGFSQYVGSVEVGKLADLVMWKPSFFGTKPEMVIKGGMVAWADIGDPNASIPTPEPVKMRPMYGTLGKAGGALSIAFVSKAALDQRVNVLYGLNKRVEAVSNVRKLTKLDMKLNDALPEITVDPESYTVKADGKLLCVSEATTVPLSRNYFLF
Experiment: Urease inhibition assay (indophenol method, cell-free)
Format: biochemical
Experimental: A reaction mixture consisting of 25 µL of enzyme solution (urease from Canavalia ensiformis, Sigma, 1U final concentration) and 5 µL of test compounds dissolved in water (10–300.0 µM final concentration) was preincubated at 37 °C for 60 min in 96-well plates. […] The absorbance was measured after 50 min at 630 nm using a MultiskanFS microplate reader (Thermo Scientific Inc., Beverly, MA, USA). […]
Give IC50 for every item shown.
One number for each entry, in µM.

{"columns": ["molecule", "study.system", "reading"],
 "data": [
  ["COc1cc(O)c2c(=O)c3c(C)cc(O)cc3oc2c1", "urease from Canavalia ensiformis (Canavalia ensiformis)", 97.3],
  ["CC1=CC(=O)OCC1 [Compound 11, 5,6-dihydro-4-methyl-2H-pyran-2-one]", "urease from Canavalia ensiformis (Canavalia ensiformis)", 11.4]
]}

Fill in IC50 for each of the 2 molecules listed.
1. Cc1cc(O)cc2oc3cc(O)cc(O)c3c(=O)c12
2. COC1=CC(=O)c2c(O)cc(OC)cc2[C@@]1(C)O [Compound 2, sajaroketide B]

## Result
1. 15.3
2. 98.5

---

Field: viability at 24 h, 100 µM. Provide a value for each of the compounds that follow.
assay: Cell viability assay (MTT), cytotoxic activity; type: cell-based, human; conditions: human, HepG2 hepatocarcinoma cells; 100 µM, 24 h, MTT, percent of control
Answer with the figure and its unit, nothing else.

The examples below pair each entry with its known result.
{"columns": ["compound", "viability at 24 h, 100 µM"],
 "data": [
  ["COC1=CC(=O)c2c(O)cc(OC)cc2[C@@]1(C)O [Compound 2, sajaroketide B]", "76.9%"],
  ["COC1=CC(=O)C[C@@H](C)[C@]12Oc1c(Cl)c(O)cc(OC)c1C2=O", "84.2%"]
]}

Value of measured viability at 24 h, 100 µM for the entry COC1=CC(=O)C[C@@H](C)[C@]12Oc1c(Cl)c(OC)cc(OC)c1C2=O [Compound 8, griseofulvin, reference compound] : 39.9%
